Molecular target: wild-type Choristoneura fumiferana EcR (D, E and F domains) (Choristoneura fumiferana, UniProt O77240)
Assay type: cell-based
Settings: S; WT-CtEcR, 3T3 Cells
pEC50: −log10 of the molar value.
Record form. Attribute: pEC50. Fill in for each entry.

Example entries and their recorded answers appear below.
CCC[C@H](N(NC(=O)c1cc(C)oc1C)C(=O)c1cc(C)cc(C)c1)C(C)(C)C = 5.15
CCC[C@H](N(NC(=O)c1c(F)cccc1F)C(=O)c1cc(C)cc(C)c1)C(C)(C)C = ~6.00

Could I get pEC50 for every one of these entries?
1. CCC[C@@H](C1CCCCC1)N(NC(=O)c1ccc(CC)cc1)C(=O)c1cc(C)cc(C)c1
2. CCC[C@@H](C1CCCCC1)N(NC(=O)c1cccc(OC)c1)C(=O)c1cc(C)cc(C)c1
3. CCC[C@H](N(NC(=O)c1ccccc1)C(=O)c1cc(C)cc(C)c1)C(C)(C)C

[A]
["~6.00", "~5.48", "~5.48"]

Hi team, please reply with pEC50 for each item in this list.
1. Cc1cc(C)cc(C(=O)N(NC(=O)OCc2ccccc2)[C@@H](CCCO)C(C)(C)C)c1
2. CCC[C@H](N(NC(=O)c1cc(OC)c(C)c(OC)c1)C(=O)c1cc(C)cc(C)c1)C(C)(C)C

[A]
< 5.00
< 5.00

* * *

Kindly supply the reported EC50 values for the records listed here.
Biological target: [V390I/Y410E/E274V]-CfEcR (Choristoneura fumiferana, UniProt O77240)
Construct: assay construct b835
Type: cell-based
Settings: R, 3T3 Cells

Past entries and their recorded results:
CCC[C@@H](N(NC(=O)c1ccc(OC)cc1)C(=O)c1cc(C)cc(C)c1)C(C)(C)C = 1.4 nM
CCC[C@@H](N(NC(=O)c1cccc(OC)c1C)C(=O)c1cc(OC)c(C)c(OC)c1)C(C)(C)C = 0.56 nM
CCC[C@@H](N(NC(=O)c1cccc(OC)c1CC)C(=O)c1cc(C)cc(C)c1)C(C)(C)C = 0.13 nM

Return reported EC50 values for all items listed beneath this line.
1. CCC[C@H](C1CCCCC1)N(NC(=O)c1ccc(CC)cc1)C(=O)c1cc(C)cc(C)c1
2. CCC[C@H](C1CCCCC1)N(NC(=O)c1cccc(OC)c1CC)C(=O)c1cc(C)cc(C)c1
3. CCC[C@@H](N(NC(=O)c1cc(F)cc(F)c1)C(=O)c1cc(C)cc(C)c1)C(C)(C)C
4. CCC[C@@H](N(NC(=O)c1ccc(C)cc1)C(=O)c1cc(C)cc(C)c1)C(C)(C)C

[A]
["~70 nM", "~200 nM", "~10 nM", "~1 nM"]

[Q] Which EC50 is listed for CCC[C@@H](N(NC(=O)c1cccs1)C(=O)c1cc(C)cc(C)c1)C(C)(C)C ?
[A] ~20 nM

* * *

Molecular target: [V390I/Y410E/E274V]-CfEcR (Choristoneura fumiferana)
Construct: assay construct b835
Format: cell-based
Conditions: R, 3T3 Cells, relative to GS-E ligand
PARAMETER: RMFI (relative maximum fold induction)
Answers are plain numbers.

CCC[C@@H](N(NC(=O)c1ccc(CC)cc1)C(=O)c1cc(C)cc(C)c1)C(C)(C)C = 0.82
CCC[C@@H](N(NC(=O)c1cccc(OC)c1)C(=O)c1cc(C)cc(C)c1)C(C)(C)C = 0.70
C=CC[C@H](C1CCCCC1)N(NC(=O)c1cccc(OC)c1C)C(=O)c1cc(C)c(OC)c(C)c1 = 0.67
CCC[C@@H](N(NC(=O)c1cccc(C)c1)C(=O)c1cc(C)cc(C)c1)C(C)(C)C = 0.92
CCC[C@@H](N(NC(=O)c1ccc2c(c1C)OCCO2)C(=O)c1cc(C)cc(C)c1)C(C)(C)C = 1.14

Batch lookup, RMFI (relative maximum fold induction) per entry.
1. CCC[C@@H](N(NC(=O)OC(C)(C)C)C(=O)c1cc(C)cc(C)c1)C(C)(C)C
2. CCC[C@@H](N(NC(=O)c1cc(OC)c(C)c(OC)c1)C(=O)c1cc(C)cc(C)c1)C(C)(C)C
3. CCC[C@H](C1CCCCC1)N(NC(=O)c1ccc(CC)cc1)C(=O)c1cc(C)cc(C)c1
4. C=CC[C@@H](CCc1ccccc1)N(NC(=O)c1ccc(CC)cc1)C(=O)c1cc(C)cc(C)c1
5. CCC[C@@H](N(NC(=O)c1ccccc1Cl)C(=O)c1cc(C)cc(C)c1)C(C)(C)C
6. CCC[C@@H](N(NC(=O)c1cccc(OC)c1CC)C(=O)c1cc(C)cc(C)c1)C(C)(C)C

[A]
0.59
0.37
0.42
0.54
1.01
0.82

Would you be so kind as to report RMFI (relative maximum fold induction) for each listed record?
1. CCC[C@@H](N(NC(=O)c1ccccc1)C(=O)c1cc(C)cc(C)c1)C(C)(C)C
2. CCC[C@@H](N(NC(=O)c1cccc(OC)c1C)C(=O)c1cc(OC)c(C)c(OC)c1)C(C)(C)C
3. CCC[C@@H](N(NC(=O)c1ccc(C)cc1)C(=O)c1cc(C)cc(C)c1)C(C)(C)C
4. CCC[C@@H](N(NC(=O)c1cccc2ccccc12)C(=O)c1cc(C)cc(C)c1)C(C)(C)C

[A]
1: 0.91; 2: 0.81; 3: 0.90; 4: 0.73

* * *

Target: [V390I/Y410E/E274V]-CfEcR (Choristoneura fumiferana, UniProt O77240)
Construct: assay construct b835
Format: cell-based
Conditions: R, 3T3 Cells
So I've got a bunch of compounds here, and I need their pEC50 values.
Answers are plain numbers, as −log10 of the molar value.

Worked cases, pEC50 given:
CCC[C@@H](N(NC(=O)c1cccc(OC)c1)C(=O)c1cc(C)cc(C)c1)C(C)(C)C = 8.85
CCC[C@@H](N(NC(=O)c1ccccc1C)C(=O)c1cc(C)cc(C)c1)C(C)(C)C = 8.96
CCC[C@@H](N(NC(=O)c1ccc2c(c1C)OCO2)C(=O)c1cc(C)cc(C)c1)C(C)(C)C = 9.59
C=CC[C@H](C1CCCCC1)N(NC(=O)c1cccc(OC)c1C)C(=O)c1cc(C)cc(C)c1 = 6.13
CCC[C@@H](N(NC(=O)c1ccc(CC)cc1)C(=O)c1cc(C)cc(C)c1)C(C)(C)C = 9.25
CCC[C@@H](N(NC(=O)c1c(F)cccc1F)C(=O)c1cc(C)cc(C)c1)C(C)(C)C = 9.27

# return pEC50 for each item in the list
1. CCC[C@@H](N(NC(=O)c1ccc2c(c1CC)OCCO2)C(=O)c1cc(C)cc(C)c1)C(C)(C)C
2. CCC[C@@H](N(NC(=O)c1ccccc1)C(=O)c1cc(C)cc(C)c1)C(C)(C)C

[A]
1. 10.19
2. 8.66

* * *

Target: [V390I/Y410E/E274V]-CfEcR (Choristoneura fumiferana, UniProt O77240)
Construct: assay construct b835
Assay type: cell-based
Conditions: R, 3T3 Cells, relative to GS-E ligand
The label y is reserved for RMFI (relative maximum fold induction) strictly under 0.8; n covers values equal to or above it.

Reference set (3 entries):
CCC[C@@H](N(NC(=O)c1cccc(Cl)c1)C(=O)c1cc(C)cc(C)c1)C(C)(C)C = y
CCC[C@@H](N(NC(=O)c1ccc2c(c1C)OCO2)C(=O)c1cc(C)cc(C)c1)C(C)(C)C = n
CCC[C@H](C1CCCCC1)N(NC(=O)c1cccc(OC)c1CC)C(=O)c1cc(C)cc(C)c1 = y

[Q] Is the reported RMFI (relative maximum fold induction) for CCC[C@H](C1CCCCC1)N(NC(=O)c1ccccc1)C(=O)c1cc(C)cc(C)c1 strictly below 0.8?
[A] y

[Q] Repeat for the following molecule: CCC[C@@H](N(NC(=O)c1cccc(OC)c1C)C(=O)c1cc(C)cc(C)c1)C(C)(C)C
[A] n

* * *

Hi there, I'd appreciate the recorded RMFI (relative maximum fold induction) for every entry that follows.
Target: wild-type Choristoneura fumiferana EcR (D, E and F domains) (Choristoneura fumiferana, UniProt O77240)
Format: cell-based
Details: rac; WT-CtEcR, 3T3 Cells; relative to GS-E ligand
Procedure: Cellular gene switch assays were performed by transiently transfecting the following constructs in mouse embryonic fibroblast cells (NIH3T3). […] NIH3T3 cells were maintained at 37′C and 5% CO2 in Dulbecco's modified Eagle's medium (DMEM) supplemented with 10% bovine calf serum, both obtained from Mediatech Inc., Manassas, Va. […] EC50 values were measured minimally in duplicate. […]

CCCC(N(NC(=O)c1cc(F)cc(F)c1)C(=O)c1cc(C)cc(C)c1)C(C)(C)C (racemic) [rac-18] = 0.26
CCCC(N(NC(=O)c1cccc(OC)c1C)C(=O)c1cc(C)cc(C)c1)C(C)(C)C (racemic) [rac-29] = 0.98
CCCC(N(NC(=O)c1ccccc1Cl)C(=O)c1cc(C)cc(C)c1)C(C)(C)C (racemic) [rac-6] = 0.72
CCCC(N(NC(=O)c1c(Cl)cccc1Cl)C(=O)c1cc(C)cc(C)c1)C(C)(C)C (racemic) [rac-16] = 0.43
CCCC(N(NC(=O)c1cccc(C)c1)C(=O)c1cc(C)cc(C)c1)C(C)(C)C (racemic) [rac-8] = 0.88

Give measured RMFI (relative maximum fold induction) for every item shown.
1. CCCC(N(NC(=O)c1ccccc1Br)C(=O)c1cc(C)cc(C)c1)C(C)(C)C (racemic) [rac-7]
2. CCCC(N(NC(=O)c1ccc(CC)cc1)C(=O)c1cc(C)cc(C)c1)C(C)(C)C (racemic) [rac-12]
3. CCCC(N(NC(=O)c1c(F)cccc1F)C(=O)c1cc(C)cc(C)c1)C(C)(C)C (racemic) [rac-15]
4. CCCC(N(NC(=O)c1cccc(OC)c1CC)C(=O)c1cc(C)cc(C)c1)C(C)(C)C (racemic) [rac-1]
5. CCCC(N(NC(=O)c1ccc2c(c1C)OCO2)C(=O)c1cc(C)cc(C)c1)C(C)(C)C (racemic) [rac-20]
6. CCCC(N(NC(=O)c1ccc2c(c1CC)OCCO2)C(=O)c1cc(C)cc(C)c1)C(C)(C)C (racemic) [rac-22]

[A]
0.63
0.79
0.68
1.05
0.90
0.88

The measured values listed here are drawn from patent US20200270225A1.
